Source of measurements: the supplement of paper PMC9233669

Tested on: biotinyl-Phe-oxazolone
Assay: self-aminoacylation, catalytic enhancement (BFO) (fold over background); higher = more active; k-Seq, kA / k0A0; sequences stand for … in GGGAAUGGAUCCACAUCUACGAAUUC…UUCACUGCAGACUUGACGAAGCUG
Variants at the floor of the assay were thinned out.
Listing of entries alongside the reported self-aminoacylation.

- seq: "CCACUCUUCAAGGAAUCGGUC [Fam1B.1 aminoacylation ribozyme variant]"
  self-aminoacylation: 3
- seq: "AUUCACCUAGGUUAUCGGGGG [Fam2.2 aminoacylation ribozyme variant]"
  self-aminoacylation: 6.72
- seq: "AAGUUUGCUAAUAGUGGCAAG [Fam3.1 aminoacylation ribozyme variant]"
  self-aminoacylation: 0.894
- seq: "AGUACCCUGGUCAUCGAGCGA [Fam2.1 aminoacylation ribozyme variant]"
  self-aminoacylation: 1.16
- seq: "GUACUUCAAACAAUCGGUCUU [Fam1A.1 aminoacylation ribozyme variant]"
  self-aminoacylation: 12.8
- seq: "AUUACCCUGGACAUCGAUUGA [Fam2.1 aminoacylation ribozyme variant]"
  self-aminoacylation: 0.447
- seq: "CUCCUUCAAACAAGCGGUCUG [Fam1A.1 aminoacylation ribozyme variant]"
  self-aminoacylation: 0.811
- seq: "CCCAACUUCAAGCAAUCGGUC [Fam1B.1 aminoacylation ribozyme variant]"
  self-aminoacylation: 78.4
- seq: "AAGUUUGCUAAUAGUCACGAG [Fam3.1 aminoacylation ribozyme variant]"
  self-aminoacylation: 1.54

---

Test system: biotinyl-Phe-oxazolone
Test: self-aminoacylation, catalytic enhancement (BFO) (fold over background); higher = more active; k-Seq, kA / k0A0; sequences stand for … in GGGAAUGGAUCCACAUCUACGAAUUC…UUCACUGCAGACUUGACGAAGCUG
Variants at the floor of the assay were thinned out.
Use 3 as the dividing line for self-aminoacylation, with the line itself on the 1 side and lower values as -1.

- seq: "AUUACCCUGGUCUUCGAGUGA [Fam2.1 aminoacylation ribozyme variant]"
  system.under.test: "biotinyl-Phe-oxazolone"
  label.value: 1
- seq: "AUUCACCUAGUUCAUCGGGUG [Fam2.2 aminoacylation ribozyme variant]"
  system.under.test: "biotinyl-Phe-oxazolone"
  label.value: 1
- seq: "CCACACUUCAAGAUAUCGGUC [Fam1B.1 aminoacylation ribozyme variant]"
  system.under.test: "biotinyl-Phe-oxazolone"
  label.value: -1
- seq: "AUUACCCUGGCCAACGAGUGA [Fam2.1 aminoacylation ribozyme variant]"
  system.under.test: "biotinyl-Phe-oxazolone"
  label.value: 1
- seq: "AAGUUCGCUAAUAGUCGCAGG [Fam3.1 aminoacylation ribozyme variant]"
  system.under.test: "biotinyl-Phe-oxazolone"
  label.value: -1
- seq: "CUACUUGGAACAAUCGGUCUG [Fam1A.1 aminoacylation ribozyme variant]"
  system.under.test: "biotinyl-Phe-oxazolone"
  label.value: -1
- seq: "AUUCACCUAGGUCACCUGGUG [Fam2.2 aminoacylation ribozyme variant]"
  system.under.test: "biotinyl-Phe-oxazolone"
  label.value: 1
- seq: "AUAACCCGGGUCAUCGAGUGA [Fam2.1 aminoacylation ribozyme variant]"
  system.under.test: "biotinyl-Phe-oxazolone"
  label.value: 1
- seq: "AAGUUUGCUAAUAGUCACUAG [Fam3.1 aminoacylation ribozyme variant]"
  system.under.test: "biotinyl-Phe-oxazolone"
  label.value: -1

---

Tested on: biotinyl-Leu-oxazolone
Experiment: self-aminoacylation, catalytic enhancement (BLO) (fold over background); higher = more active; k-Seq, kA / k0A0; sequences stand for … in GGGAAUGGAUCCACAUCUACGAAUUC…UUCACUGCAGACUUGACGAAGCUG
This sample holds only a part of the variants without activity.
Listing of entries alongside the reported self-aminoacylation.

- seq: "AGUCACCUAGCUCAUCGGGUG [Fam2.2 aminoacylation ribozyme variant]"
  system.under.test: "biotinyl-Leu-oxazolone"
  self-aminoacylation: 2.79
- seq: "AUCACACUGGUCAUCGAGUGA [Fam2.1 aminoacylation ribozyme variant]"
  system.under.test: "biotinyl-Leu-oxazolone"
  self-aminoacylation: 6.47
- seq: "AUUGCCCUGGUCAUUGAGUGA [Fam2.1 aminoacylation ribozyme variant]"
  system.under.test: "biotinyl-Leu-oxazolone"
  self-aminoacylation: 7.3
- seq: "AUUCACGUAGGUCAUCUGGUG [Fam2.2 aminoacylation ribozyme variant]"
  system.under.test: "biotinyl-Leu-oxazolone"
  self-aminoacylation: 5.52
- seq: "CAACACUUCAAGCAAUCAGUC [Fam1B.1 aminoacylation ribozyme variant]"
  system.under.test: "biotinyl-Leu-oxazolone"
  self-aminoacylation: 0.923
- seq: "AUUUCCCUGGUCAACGAGUGA [Fam2.1 aminoacylation ribozyme variant]"
  system.under.test: "biotinyl-Leu-oxazolone"
  self-aminoacylation: 6.99
- seq: "AUUGACCUAGGUCAUCGGUUG [Fam2.2 aminoacylation ribozyme variant]"
  system.under.test: "biotinyl-Leu-oxazolone"
  self-aminoacylation: 1.41
- seq: "AUUAUCCCGGUCAUCGAGUGA [Fam2.1 aminoacylation ribozyme variant]"
  system.under.test: "biotinyl-Leu-oxazolone"
  self-aminoacylation: 10.6
- seq: "AUUAACCUGGUCAUCGAGUGA [Fam2.1 aminoacylation ribozyme variant]"
  system.under.test: "biotinyl-Leu-oxazolone"
  self-aminoacylation: 7.64

---

Tested on: biotinyl-Met-oxazolone
Experiment: self-aminoacylation, catalytic enhancement (BMO) (fold over background); higher = more active; k-Seq, kA / k0A0; sequences stand for … in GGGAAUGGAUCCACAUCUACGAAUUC…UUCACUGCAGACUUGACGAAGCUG
Variants at the floor of the assay were thinned out.
endpoint.name: self-aminoacylation

- seq: "AAGUUUGAUAUUAGUCGCAAG [Fam3.1 aminoacylation ribozyme variant]"
  readout.value: 1.24
- seq: "CUACUUCAAACUAUCGGCCUG [Fam1A.1 aminoacylation ribozyme variant]"
  readout.value: 1.13
- seq: "CUUACCGUGGUCAUCGAGUGA [Fam2.1 aminoacylation ribozyme variant]"
  readout.value: 3.29
- seq: "AUUACCCUGGCCAUCGAGUCA [Fam2.1 aminoacylation ribozyme variant]"
  readout.value: 0.714
- seq: "AAGCUUGCGAAUAGUCGCAAG [Fam3.1 aminoacylation ribozyme variant]"
  readout.value: 2.12

---

Tested on: biotinyl-Val-oxazolone
Test: self-aminoacylation, catalytic enhancement (BVO) (fold over background); higher = more active; k-Seq, kA / k0A0; sequences stand for … in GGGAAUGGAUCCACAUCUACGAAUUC…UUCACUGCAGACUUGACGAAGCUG
Fewer inactive variants are shown than the library holds.
Use 3 as the dividing line for self-aminoacylation, with the line itself on the YES side and lower values as NO.

- seq: "AUUCACCUUGGACAUCGGGUG [Fam2.2 aminoacylation ribozyme variant]"
  system.under.test: "biotinyl-Val-oxazolone"
  label.value: "YES"
- seq: "AUUCUCCAAGGUCAUCGGGUG [Fam2.2 aminoacylation ribozyme variant]"
  system.under.test: "biotinyl-Val-oxazolone"
  label.value: "YES"
- seq: "CUACUUCAAACAAACGGCCUG [Fam1A.1 aminoacylation ribozyme variant]"
  system.under.test: "biotinyl-Val-oxazolone"
  label.value: "NO"
- seq: "CCACACUUCAAGCGAUCGGAC [Fam1B.1 aminoacylation ribozyme variant]"
  system.under.test: "biotinyl-Val-oxazolone"
  label.value: "NO"
- seq: "AUUACCCUGGUCAUCGAGAGA [Fam2.1 aminoacylation ribozyme variant]"
  system.under.test: "biotinyl-Val-oxazolone"
  label.value: "NO"
- seq: "CUACUUCAAACAAUCUUUCUG [Fam1A.1 aminoacylation ribozyme variant]"
  system.under.test: "biotinyl-Val-oxazolone"
  label.value: "NO"
- seq: "AUUCAGCUAGGUCAUAGGGUG [Fam2.2 aminoacylation ribozyme variant]"
  system.under.test: "biotinyl-Val-oxazolone"
  label.value: "NO"
- seq: "GCACACGUCAAGCAAUCGGUC [Fam1B.1 aminoacylation ribozyme variant]"
  system.under.test: "biotinyl-Val-oxazolone"
  label.value: "NO"

---

Tested on: biotinyl-Trp-oxazolone
Test: self-aminoacylation, catalytic enhancement (BWO) (fold over background); higher = more active; k-Seq, kA / k0A0; sequences stand for … in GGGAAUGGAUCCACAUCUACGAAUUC…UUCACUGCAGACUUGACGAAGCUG
This sample holds only a part of the variants without activity.
endpoint.name: self-aminoacylation

- seq: "AAGUUUGCUAAGAGACGCAAG [Fam3.1 aminoacylation ribozyme variant]"
  system.under.test: "biotinyl-Trp-oxazolone"
  readout.value: 0.74
- seq: "AUUCAUCUAGGUCAUCAGGUG [Fam2.2 aminoacylation ribozyme variant]"
  system.under.test: "biotinyl-Trp-oxazolone"
  readout.value: 2.07
- seq: "CUACUUCAAACAAACGGCCUG [Fam1A.1 aminoacylation ribozyme variant]"
  system.under.test: "biotinyl-Trp-oxazolone"
  readout.value: 0.967
- seq: "AAGUUUGCUAAUAUUGGCAAG [Fam3.1 aminoacylation ribozyme variant]"
  system.under.test: "biotinyl-Trp-oxazolone"
  readout.value: 1.22
- seq: "AUUACCGUAGUCAUCGAGUGA [Fam2.1 aminoacylation ribozyme variant]"
  system.under.test: "biotinyl-Trp-oxazolone"
  readout.value: 7.23
- seq: "CUACUUCGAAGAAUCGGUCUG [Fam1A.1 aminoacylation ribozyme variant]"
  system.under.test: "biotinyl-Trp-oxazolone"
  readout.value: 0.567
- seq: "AUUACCCUGGUUAUCGAGGGA [Fam2.1 aminoacylation ribozyme variant]"
  system.under.test: "biotinyl-Trp-oxazolone"
  readout.value: 1.79
- seq: "AAAUUUGCUAAUAGUCGCAAG [Fam3.1 aminoacylation ribozyme variant]"
  system.under.test: "biotinyl-Trp-oxazolone"
  readout.value: 2.13
- seq: "CUAAUUAAAACAAUCGGUCUG [Fam1A.1 aminoacylation ribozyme variant]"
  system.under.test: "biotinyl-Trp-oxazolone"
  readout.value: 0.564
